Quick list: residual activity per entry.
Target: PRKACA (human) (UniProt P17612)
Assay: radiometric filter-binding kinase assay
Conditions: compound 0.1 µM
reported endpoint: residual activity (%)

{"columns": ["compound", "readout value"],
 "data": [
  ["O=C(O)c1ccc(-c2c[nH]c3ncc(-c4ccccc4)cc23)cc1C1CCCC1", 91],
  ["CCCCCc1ccc(/C=C/[C@H](O)[C@@H](CO)NC)cc1", 110],
  ["C/C(=C1/C(=O)Nc2ccc(NC(N)=O)cc21)c1ccc[nH]1", 81],
  ["CNC(=O)C1[C@H]2O[C@@](C)([C@@H]1N)n1c3ccccc3c3c4c(c5c6ccccc6n2c5c31)C(=O)NC4 (stereo partly specified)", 5],
  ["NC1(c2ccc(-c3nc4ccn5c(=O)[nH]nc5c4cc3-c3ccccc3)cc2)CCC1", 104],
  ["Cn1c(=O)c2c(ncn2C)n(C)c1=O", 103],
  ["CN1CCN(CCOc2cc(OC3CCOCC3)c3c(Nc4c(Cl)ccc5c4OCO5)ncnc3c2)CC1", 105],
  ["COc1cc(O)c2c(c1)/C=C/C[C@H](O)[C@H](O)C(=O)/C=C\\C[C@H](C)OC2=O", 99],
  ["COc1ccc(-n2ncc3cnc(Nc4cc(OC)c(OC)c(OCCCN5CCN(C)CC5)c4)nc32)cc1", 78],
  ["CN(C)C/C=C/C(=O)Nc1cccc(C(=O)Nc2ccc(Nc3nccc(-c4cccnc4)n3)cc2)c1", 97],
  ["Cc1cc(NC(=O)c2cccc(NC(=O)/C=C/CN(C)C)c2)ccc1Nc1nccc(-c2cccnc2)n1", 105]
]}
